As shown below, each of these molecules has a reported pIC50 value.
Target: JMJD2E (Homo sapiens)
Sequence (B2RXH2 1-337): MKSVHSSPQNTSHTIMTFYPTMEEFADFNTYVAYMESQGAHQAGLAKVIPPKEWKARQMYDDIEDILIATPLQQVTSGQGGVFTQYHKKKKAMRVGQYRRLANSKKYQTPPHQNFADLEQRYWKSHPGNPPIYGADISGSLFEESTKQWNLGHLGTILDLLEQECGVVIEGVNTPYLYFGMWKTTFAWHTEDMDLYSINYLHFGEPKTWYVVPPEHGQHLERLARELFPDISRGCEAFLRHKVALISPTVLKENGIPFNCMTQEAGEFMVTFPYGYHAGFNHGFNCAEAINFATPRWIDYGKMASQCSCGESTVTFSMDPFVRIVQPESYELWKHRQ
Assay: JMJD2E FDH-coupled assay under low and high iron conditions (iron chelation profile)
Assay type: biochemical
Design: The catalytic domain of human JMJD2E (residues 1–337); His6 (N); made in house; host or cells: E. coli
Settings: Table S1; high iron, head says 20 µM FAS; unit not in table, from Figure 2; read-out: qHTS Data: jmjd2e fas20um IC50
pIC50: −log10 of the molar value.
Result type: pIC50

Molecule: O=c1cc2c(=O)oc3cc(O)c(O)oc3c2c(O)c1O
Result type: pIC50
Recorded number: 4.80

Molecule: CCc1ccc2c(O)c3c(cc2c1C(=O)OC)C(=O)c1c(O)ccc(O)c1C3=O
Result type: pIC50
Recorded number: 4.95

Molecule: CNCCc1ccc(O)c(O)c1.Cl
Result type: pIC50
Recorded number: 4.95

Molecule: O=C(CSc1ncn[nH]1)c1cccc([N+](=O)[O-])c1
Result type: pIC50
Recorded number: 4.85

Molecule: C=C1c2cccc(O)c2C(O)=C2C(=O)[C@]3(O)C(O)=C(C(N)=O)C(=O)C(N(C)C)C3C(O)C12.Cl (some centres unmarked)
Result type: pIC50
Recorded number: 5.60
